Molecular target: Shiga toxin 2 (Escherichia coli O157:H7) (UniProt P09385+P09386)
Assay: E. coli 0.157:H7 Shiga Toxin SOP - stx2 screening assay
Format: functional
Set-up: scale not given: direction of the effect not stated beside the values
Conditions: 30 µM
recorded_endpoint: Percent Effect (%)
One number for each entry, in %.

Answered cases to consult:
O=C(O)C1(Cc2cccc(-c3ccc(F)c(F)c3)c2)CCOCC1	7.92
O=C(O)c1nnn(Cc2cccc(C(F)(F)F)c2)c1-c1cccnc1	-46.6
c1ncn(CC2CCCCN2Cc2noc(C3CC3)n2)n1 (stereo unspecified)	26

Need Percent Effect for each of these compounds.
1. COc1nn(C)cc1C(=O)N1CCC(c2nnc(C3CC3)o2)CC1
2. CC(=O)N1CCCN(C(=O)NCc2cc[nH]n2)CC1
3. Cc1cc(CN2CC[C@H]3C[C@H](C(=O)N(C)C)O[C@@H]3C2)no1

Result string:
1. -8.92
2. -9.44
3. -6.84
